# System: Community 4
# experimentDescription: relative growth (AUC of 72 h growth curve relative to DMSO control, dAUC) (ratio); higher = more growth (less inhibition), active = hit call of the paper
# condition: 20 µM
# label = Condition met if relative growth >= 0.9 else Condition not met

compound=CC(C)(C)[C@@H](O)[C@H](Oc1ccc(Cl)cc1)n1cncn1 assignedclass="Condition met"
compound=Cc1cc(C)c(C2=C(OC(=O)CC(C)(C)C)C3(CCCC3)OC2=O)c(C)c1 assignedclass="Condition met"
compound="C#CCOc1ccc(CCNC(=O)C(OCC#C)c2ccc(Cl)cc2)cc1OC (centres undefined)" assignedclass="Condition met"
compound=N#Cc1sc2c(=O)c3ccccc3c(=O)c=2sc1C#N assignedclass="Condition met"
compound=Cc1nc(N(C)C)nc(OC(=O)N(C)C)c1C assignedclass="Condition not met"
compound="O=C(NC(=O)c1c(F)cccc1F)Nc1ccc(OC(F)(F)C(F)OC(F)(F)F)c(Cl)c1 (centres undefined)" assignedclass="Condition met"
compound=CNC(=O)Oc1cccc2ccccc12 assignedclass="Condition met"
compound=CCCCCCCCCCCCNC(=N)N assignedclass="Condition not met"
compound="CCCSP(=O)(OCC)Oc1ccc(Br)cc1Cl (centres undefined)" assignedclass="Condition not met"
compound="CC(Oc1ccc(Oc2nc3ccc(Cl)cc3o2)cc1)C(=O)O (centres undefined)" assignedclass="Condition met"
compound=CC1(C)[C@H](C(=O)O[C@H](C#N)c2cccc(Oc3ccccc3)c2)[C@@H]1C=C(Br)Br assignedclass="Condition met"
compound=Cc1cc(C)nc(Nc2ccccc2)n1 assignedclass="Condition met"
compound=COC(=O)N(OC)c1ccccc1COc1ccn(-c2ccc(Cl)cc2)n1 assignedclass="Condition met"
compound="CC(C1CC1)C(O)(Cn1cncn1)c1ccc(Cl)cc1 (centres undefined)" assignedclass="Condition met"
compound=Oc1ccccc1-c1ccccc1 assignedclass="Condition not met"
compound=CCOP(=S)(OCC)Oc1nc(Cl)c(Cl)cc1Cl assignedclass="Condition met"
compound="CCc1cnc(C2=NC(C)(C(C)C)C(=O)N2)c(C(=O)O)c1 (centres undefined)" assignedclass="Condition met"
compound="CC1(C)C(C=C(Cl)Cl)C1C(=O)OC(C#N)c1cccc(Oc2ccccc2)c1 (centres undefined)" assignedclass="Condition met"
compound=COC(=O)N(C(=O)N1CO[C@@]2(C(=O)OC)Cc3cc(Cl)ccc3C2=N1)c1ccc(OC(F)(F)F)cc1 assignedclass="Condition met"
compound=CCC(=O)Nc1ccc(Cl)c(Cl)c1 assignedclass="Condition met"

====

# Test system: Arthrobacter 2 (Arthrobacter humicola)
# experimentDescription: relative growth (AUC of 72 h growth curve relative to DMSO control, dAUC) (ratio); higher = more growth (less inhibition), active = hit call of the paper
# condition: 20 µM
The entries below come with measured relative growth values attached.
experimentalReadout: relative growth

compound=CCOc1cc(Oc2ccc(C(F)(F)F)cc2Cl)ccc1[N+](=O)[O-] valuemeasured=0.848
compound="N#Cc1nn(-c2c(Cl)cc(C(F)(F)F)cc2Cl)c(N)c1[S+]([O-])C(F)(F)F (stereo not drawn)" valuemeasured=0.914
compound=CSc1nnc(C(C)(C)C)c(=O)n1N valuemeasured=1.06
compound="CC1COC(Cn2cncn2)(c2ccc(Oc3ccc(Cl)cc3)cc2Cl)O1 (stereo not drawn)" valuemeasured=0.223
compound=C[C@@H]1[C@@H](c2ccc(Cl)cc2)SC(=O)N1C(=O)NC1CCCCC1 valuemeasured=0.925
compound=N#Cc1c(Cl)c(Cl)c(Cl)c(C#N)c1Cl valuemeasured=0.136
compound=CCCCN(CCCC)SN(C)C(=O)Oc1cccc2c1OC(C)(C)C2 valuemeasured=0.838
compound=CN(C)C(CSS(=O)(=O)O)CSS(=O)(=O)O valuemeasured=1.04
